system: mouse hepatocytes; test: cells; settings: Hepatocyte, 1 h, read-out: PC50 (concentration producing a 50% decrease in LDH leakage)
assay-readout: pEC50
Formally, pEC50 is defined as -log10 of the concentration c, with c in mol/L.

compound | pEC50
NNc1nccc2ccccc12 [hydrazinoisoquinoline, 1-hydrazinoisoquinoline] | 5.22
O=C(O)c1ccccc1O | 4.23
Nc1ccc(O)cc1 | 4.70

Q) Fill in: pEC50 of NNc1cccc2ccccc12 [naphthylhydrazine] is ___
A) 5.15

Q) Also, NNc1ccccn1 [hydrazinopyridine, 2-hydrazinopyridine] please.
A) 4.40

Q) Also, NNc1ccc2ccccc2n1 [hydrazinoquinoline, 2-hydrazinoquinoline] please.
A) 4.96

Q) Also, `c1ccc(Nc2ccccc2)cc1` please.
A) 5.52

* * *

We begin with a simple list: items and their reported EC50.
system: mouse hepatocytes; assay: cells; conditions: Hepatocyte, 1 h, read-out: PC50 (concentration producing a 50% decrease in LDH leakage)
// return numeric value only (unit: µM, not printed)

The examples below pair each entry with its known result.
compound | readout-unit | EC50
Oc1ccccc1 | µM | 48
CCCCNC | µM | 6
CC(C)NC(C)C | µM | 66
NNc1nnc(NN)c2ccccc12 [dihydralazine] | µM | 13
NNc1ccccc1 [phenylhydrazine] | µM | 8

Kindly consider the entry below.
Q) Fill in: EC50 of `CON` is ___
A) 9000

* * *

tested on: mouse hepatocytes; assay: cells; details: Hepatocyte, 1 h, read-out: PC50 (concentration producing a 50% decrease in LDH leakage)
pEC50: −log10 of the molar value.
We begin with a simple list: items and their reported pEC50.

compound | pEC50
NC1CCCCC1 [cyclohexylamine] | < 4.00
Cc1ncc(CO)c(CN)c1O [pyridoxamine] | < 2.00

Q) Fill in: pEC50 of NCc1ccccc1 [benzylamine] is ___
A) < 4.00
